# credit: ChEMBL document CHEMBL3885861

Quick reference for KIDNEY_R among some molecules
species: Rattus norvegicus; test: Open TG-GATES - Regimen: Daily Repeat; type: toxicity, organism-based, Sprague-Dawley; parameters: regimen Daily Repeat, gender Male, age 6 weeks; settings: in vivo, po, 100 mg/kg, […], tissue Kidney, route gavage, dose level Low, time 28 day
Respond with the bare value in g.

Guide cases for KIDNEY_R, answers given:
CCOC(=O)CCC(=O)O[C@H]1[C@H](O[C@@H]2[C@@H](C)[C@H](O[C@H]3C[C@@](C)(OC)[C@@H](O)[C@H](C)O3)[C@@H](C)C(=O)O[C@H](CC)[C@@](C)(O)[C@H](O)[C@@H](C)C(=O)[C@H](C)C[C@@]2(C)O)O[C@H](C)C[C@@H]1N(C)C [ERYTHROMYCIN ETHYLSUCCINATE]
1.4
NC(N)=Nc1nc(CSCCC(N)=NS(N)(=O)=O)cs1 [FAMOTIDINE]
1.4
COC1=CC(=O)C[C@@H](C)[C@]12Oc1c(Cl)c(OC)cc(OC)c1C2=O [GRISEOFULVIN]
1.4

Need KIDNEY_R, item CCOc1ccc(NC(=O)CC(C)O)cc1 (stereo not given) [BUCETIN]
1.4

Look up KIDNEY_R for this molecule: COc1ccc2[nH]c([S+]([O-])Cc3ncc(C)c(OC)c3C)nc2c1 (stereo not given) [OMEPRAZOLE]
1.3

---

Below, each entry is listed alongside its reported Plat.
species: Rattus norvegicus; experiment: Open TG-GATES - Regimen: Single; assay type: toxicity, organism-based, Sprague-Dawley; parameters: regimen Single, gender Male, age 6 weeks; conditions: in vivo, po, 0 mg/kg, 3 h, tissue Blood, route gavage, dose level Control
Express it in x10_4/uL; write the number only.

CN(C)CCN(Cc1cccs1)c1ccccn1
124.4
CCOC(=O)CCC(=O)O[C@H]1[C@H](O[C@@H]2[C@@H](C)[C@H](O[C@H]3C[C@@](C)(OC)[C@@H](O)[C@H](C)O3)[C@@H](C)C(=O)O[C@H](CC)[C@@](C)(O)[C@H](O)[C@@H](C)C(=O)[C@H](C)C[C@@]2(C)O)O[C@H](C)C[C@@H]1N(C)C [ERYTHROMYCIN ETHYLSUCCINATE]
112.7
NC(N)=Nc1nc(CSCCC(N)=NS(N)(=O)=O)cs1 [FAMOTIDINE]
110.5
CCOc1ccc(NC(=O)CC(C)O)cc1 (stereo unspecified) [BUCETIN]
115.4
CN(C)CCCN1c2ccccc2CCc2ccc(Cl)cc21 [CLOMIPRAMINE]
115.6
CC/C(=C(\c1ccccc1)c1ccc(OCCN(C)C)cc1)c1ccccc1 [TAMOXIFEN]
123.1

Need Plat, item CN1C(=O)CN=C(c2ccccc2)c2cc(Cl)ccc21 [DIAZEPAM]
101

Endpoint output: Plat of NNC(=O)c1ccncc1 [ISONIAZID] . Value?
121.9

---

species: Rattus norvegicus; assay: Open TG-GATES - Regimen: Daily Repeat; format: toxicity, organism-based, Sprague-Dawley; design: regimen Daily Repeat, gender Male, age 6 weeks; details: in vivo, po, 300 mg/kg, 72 h, tissue Plasma, route gavage, dose level Middle, time 3 day
Listing: TP of selected compounds
Field: numeric (g/dL). Do not append units.

Solved entries:
COC1=CC(=O)C[C@@H](C)[C@]12Oc1c(Cl)c(OC)cc(OC)c1C2=O
5.6
COc1ccc2[nH]c([S+]([O-])Cc3ncc(C)c(OC)c3C)nc2c1 (stereo not given)
5.6
NC(N)=Nc1nc(CSCCC(N)=NS(N)(=O)=O)cs1
5.6
CCOC(=O)CCC(=O)O[C@H]1[C@H](O[C@@H]2[C@@H](C)[C@H](O[C@H]3C[C@@](C)(OC)[C@@H](O)[C@H](C)O3)[C@@H](C)C(=O)O[C@H](CC)[C@@](C)(O)[C@H](O)[C@@H](C)C(=O)[C@H](C)C[C@@]2(C)O)O[C@H](C)C[C@@H]1N(C)C [ERYTHROMYCIN ETHYLSUCCINATE]
5.5

Report TP for CCOc1ccc(NC(=O)CC(C)O)cc1 (stereo not given) please.
5.8
